TGI values, listed per item
system: DMS 114 small cell lung; test: NCI tumour cell line growth inhibition, 48 h
parameter measured: TGI

{"columns": ["compound", "assay target", "recorded value"],
 "data": [
  ["O=C(c1cc2c(C(F)(F)F)onc2c2ccccc12)C(F)(F)F", "DMS 114 small cell lung", "10.9 µM"],
  ["CC(C)Cc1ccc(C(C)/C=C2\\CCC(CN3CCCC3)C2=O)cc1 (centres undefined)", "DMS 114 small cell lung", "12.2 µM"],
  ["COc1cc2ccc(/C(C)=N/OC(C)=O)cc2cc1OC", "DMS 114 small cell lung", "> 100 µM"],
  ["O=C(O)CCSC(=O)Nc1cccc([N+](=O)[O-])c1", "DMS 114 small cell lung", "> 100 µM"],
  ["CCN(CC)C(=O)CNC(=O)OC(C)(C)C", "DMS 114 small cell lung", "> 100 µM"],
  ["O=S1c2ccccc2N=C(c2ccc(Cl)cc2)CC1c1cccs1 (centres undefined)", "DMS 114 small cell lung", "39.5 µM"],
  ["CC(Oc1ccc(OCC2CCCCC2)cc1)C(=O)O (centres undefined)", "DMS 114 small cell lung", "> 100 µM"],
  ["Cc1ccc(NC(=O)CC/C(CC(=O)c2ccc(Cl)cc2)=N\\NC(=O)C(=O)NN)cc1C", "DMS 114 small cell lung", "> 100 µM"],
  ["CC([C@H]1CCC2C3CCC4CC5(CC[C@]4(C)C3CC[C@@]21C)c1ccccc1C(=O)N5C)N(C)C (some centres undefined)", "DMS 114 small cell lung", "> 100 µM"]
]}

* * *

TGI values, listed per item
test system: SK-MEL-5 melanoma; assay: NCI tumour cell line growth inhibition, 48 h

{"columns": ["compound", "qualifier operator", "TGI, µM"],
 "data": [
  ["CCOC(=O)CNC1C(NC(C)=O)C(OC)OC2COC(c3ccccc3)OC21 (stereo not given)", ">", 100],
  ["CC(=O)NNC(=S)/N=C/c1c(O)cc(C)oc1=O", ">", 100],
  ["NC1=NC(c2ccccc2)CC(c2cc(Cl)cc(Br)c2O)=N1 (stereo not given)", "=", 25],
  ["CCC1CCCCN1C(=S)N/N=C(\\C)c1ccccn1 (stereo not given)", "=", 1.59],
  ["CC(=O)O[C@H]1CC[C@@]2(C)C(=CC[C@@H]3[C@@H]2CC[C@]2(C)c4c(cc(C#N)c(=N)n4C(C)=O)C[C@@H]32)C1", "=", 29.7]
]}

* * *

TGI values, listed per item
system: HCT-15 colon; test: NCI tumour cell line growth inhibition, 48 h

{"columns": ["molecule", "qualifier operator", "TGI [µM]"],
 "data": [
  ["COc1cc([C@@H]2c3cc4c(cc3[C@@H](NCc3ccc(C#N)cc3)C3COC(=O)[C@@H]32)OCO4)cc(OC)c1O (some centres undefined)", "=", 3.01],
  ["COC1CC2C=CC3C4OC2(/C(C)=C/C(C)C(C(C)O)OC1=O)C3C(O)C(C)C4OC(=O)c1ccc[nH]1 (centres undefined)", ">", 100],
  ["C=Cc1cc2c(cc1O)CC[C@@H]1[C@@H]2CC[C@]2(C)[C@@H](O)CC[C@@H]12", "=", 28.8],
  ["CCCC1C(=O)C(CC)Cc2c(OC)ccc(OC)c21 (centres undefined)", ">", 100]
]}

Where do these numbers come from? They come from PubChem BioAssay (NCI).
